Consider the following binders; for each one, report its pKd.
target: T1, recombinant human PAD4 (human, UniProt Q9UM07 1-663); assay: SPR 37 C, captured antibody, PAD4 analyte, 2 mM EDTA
T1 construct: also called rhPAD4; hPAD4
T1 sequence (Q9UM07 whole entry): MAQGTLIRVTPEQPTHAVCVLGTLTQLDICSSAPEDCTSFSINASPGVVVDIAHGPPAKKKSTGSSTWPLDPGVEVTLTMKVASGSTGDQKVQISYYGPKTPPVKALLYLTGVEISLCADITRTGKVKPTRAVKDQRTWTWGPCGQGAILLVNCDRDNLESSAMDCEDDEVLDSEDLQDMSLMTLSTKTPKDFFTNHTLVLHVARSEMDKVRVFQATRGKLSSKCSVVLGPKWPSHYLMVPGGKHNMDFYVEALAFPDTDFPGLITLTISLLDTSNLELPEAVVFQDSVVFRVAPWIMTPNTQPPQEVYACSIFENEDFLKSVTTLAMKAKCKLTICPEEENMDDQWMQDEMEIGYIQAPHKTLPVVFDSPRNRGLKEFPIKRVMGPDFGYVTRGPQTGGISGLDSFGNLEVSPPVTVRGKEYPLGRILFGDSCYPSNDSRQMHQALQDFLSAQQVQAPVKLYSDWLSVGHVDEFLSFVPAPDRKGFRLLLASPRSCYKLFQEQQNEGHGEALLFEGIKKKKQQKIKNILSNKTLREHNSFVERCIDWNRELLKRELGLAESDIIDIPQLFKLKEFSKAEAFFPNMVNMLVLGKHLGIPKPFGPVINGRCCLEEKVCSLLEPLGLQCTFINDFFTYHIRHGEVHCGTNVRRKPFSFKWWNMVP
Units for pKd: none; it is -log10 of a concentration expressed in mol/L.

Ask: Given the binder hz13-8 (antibody, V domains shown, light constant region not tied to this antibody) VH: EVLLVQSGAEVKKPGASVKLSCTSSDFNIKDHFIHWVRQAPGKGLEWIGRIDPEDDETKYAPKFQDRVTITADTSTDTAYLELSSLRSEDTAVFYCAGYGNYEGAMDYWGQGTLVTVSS VL: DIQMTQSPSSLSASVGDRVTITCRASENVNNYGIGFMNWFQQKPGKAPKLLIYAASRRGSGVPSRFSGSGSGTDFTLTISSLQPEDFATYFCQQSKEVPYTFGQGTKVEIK , what is its reported pKd?
Result: 10.00

Ask: Entry to check: hz13-4 (antibody, V domains shown, light constant region not tied to this antibody) VH: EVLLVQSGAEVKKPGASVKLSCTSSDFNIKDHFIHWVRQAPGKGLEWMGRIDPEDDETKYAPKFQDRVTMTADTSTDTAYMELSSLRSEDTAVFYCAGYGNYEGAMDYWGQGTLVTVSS VL: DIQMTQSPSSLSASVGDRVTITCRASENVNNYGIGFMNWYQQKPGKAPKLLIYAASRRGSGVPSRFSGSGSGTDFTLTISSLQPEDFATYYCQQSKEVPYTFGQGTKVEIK
Result: 9.70

Ask: How about this binder: hz13-9 (antibody, V domains shown, light constant region not tied to this antibody) VH: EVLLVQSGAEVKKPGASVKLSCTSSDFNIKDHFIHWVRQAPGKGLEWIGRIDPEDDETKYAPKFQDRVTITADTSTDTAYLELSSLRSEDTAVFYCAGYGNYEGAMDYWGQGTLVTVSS VL: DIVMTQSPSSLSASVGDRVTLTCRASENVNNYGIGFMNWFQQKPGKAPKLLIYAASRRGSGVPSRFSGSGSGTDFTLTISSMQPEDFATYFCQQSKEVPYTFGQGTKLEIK
Result: 10.00

Ask: // next record hz20-5 (antibody, V domains shown, light constant region not tied to this antibody) VH: QVQLVQSGAEVKKPGASVKVSCKASGYTFTNYGISWVRQRPGQGLEWIGEIYPRSGNTYHNEKFKDRVTMTADTSTSTVYMELSSLRSEDTAVYYCARSMITTRYWYFDVWGKGTTVTVSS VL: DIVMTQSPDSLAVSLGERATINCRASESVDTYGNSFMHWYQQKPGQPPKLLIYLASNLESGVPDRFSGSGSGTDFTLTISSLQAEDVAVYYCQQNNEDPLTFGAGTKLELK
Result: 8.77

Ask: Try the binder hz20-13 (antibody, V domains shown, light constant region not tied to this antibody) VH: QVQLVQSGAEVKKPGASVKVSCKASGYTFTNYGISWVRQRPGQGLEWMGEIYPRSGNTYHNEKFKDRVTMTTDKSTSTAYMELRSLRSEDTAVYYCARSMITTRYWYFDVWGKGTTVTVSS VL: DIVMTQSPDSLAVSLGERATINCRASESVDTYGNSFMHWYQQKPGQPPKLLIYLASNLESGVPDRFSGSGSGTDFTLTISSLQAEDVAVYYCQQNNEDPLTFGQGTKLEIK
Result: 9.40

Ask: Request: hz13-1 (antibody, V domains shown, light constant region not tied to this antibody) VH: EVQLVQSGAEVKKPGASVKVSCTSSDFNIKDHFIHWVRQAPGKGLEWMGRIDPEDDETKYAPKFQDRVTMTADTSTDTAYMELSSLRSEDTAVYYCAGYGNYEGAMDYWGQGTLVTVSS VL: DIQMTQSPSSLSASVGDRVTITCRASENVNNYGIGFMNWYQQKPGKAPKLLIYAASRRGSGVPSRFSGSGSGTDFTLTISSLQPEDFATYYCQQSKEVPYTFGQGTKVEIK
Result: 9.52

Ask: Same question, hz20-9 (antibody, V domains shown, light constant region not tied to this antibody) VH: QVQLVQSGAEVKKPGASVKVSCKASGYTFTNYGISWVRQAPGQGLEWMGEIYPRSGNTYHNEKFKDRVTMTTDKSTSTAYMELRSLRSDDTAVYYCARSMITTRYWYFDVWGKGTTVTVSS VL: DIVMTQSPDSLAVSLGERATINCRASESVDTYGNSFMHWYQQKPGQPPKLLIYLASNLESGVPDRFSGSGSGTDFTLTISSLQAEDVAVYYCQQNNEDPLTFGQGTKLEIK this time
Result: 9.40

Ask: What do we get for hz20-3 (antibody, V domains shown, light constant region not tied to this antibody) VH: EVQLVQSGAEVKKPGASVKVSCKASGYTFTNYGISWVRQAPGQGLEWMGEIYPRSGNTYHNEKFKDRVTMTADKSTSTAYMELRSLRSDDTAVYFCARSMITTRYWYFDVWGQGTLVTVSS VL: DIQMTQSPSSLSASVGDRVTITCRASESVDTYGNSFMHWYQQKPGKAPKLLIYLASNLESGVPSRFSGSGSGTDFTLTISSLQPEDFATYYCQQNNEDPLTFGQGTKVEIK ?
Result: 9.05

Ask: Proceed to hz20-4 (antibody, V domains shown, light constant region not tied to this antibody) VH: QVQLVQSGAEVKKPGASVKVSCKASGYTFTNYGISWVRQAPGQGLEWMGEIYPRSGNTYHNEKFKDRVTMTADTSTSTVYMELSSLRSEDTAVYYCARSMITTRYWYFDVWGKGTTVTVSS VL: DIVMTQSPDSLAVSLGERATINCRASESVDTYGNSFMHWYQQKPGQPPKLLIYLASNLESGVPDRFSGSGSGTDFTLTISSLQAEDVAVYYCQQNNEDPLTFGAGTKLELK
Result: 8.52

Ask: Item: hz20-11 (antibody, V domains shown, light constant region not tied to this antibody) VH: QVQLVQSGAEVAKPGASVKVSCKASGYTFTNYGISWVRQRPGQGLEWMGEIYPRSGNTYHNEKFKDRVTMTTDTSTSTAYMELRSLRSEDTAVYYCARSMITTRYWYFDVWGKGTTVTVSS VL: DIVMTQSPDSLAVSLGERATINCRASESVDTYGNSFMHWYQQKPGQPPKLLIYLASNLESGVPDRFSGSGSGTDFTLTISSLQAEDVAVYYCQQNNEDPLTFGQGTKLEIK
Result: 9.22
